# systemName: T1, PSMA Fab (biotinylated (site not stated))
# T1 construct: also called Anti-PSMA Fab; 006 PSMA Fab
# testName: clonal phage ELISA on biotinylated PSMA Fab captured on neutravidin plates, anti-M13 HRP detection;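 note: crude clonal phage supernatants tested, before phage were added, wells were pretreated with PSMA antigen in blocking buffer or with blocking buffer only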
Where no end group is shown, it is not given here.
propertyName: Phage binding ELISA signal, Anti-PSMA Fab

binder	endpointValue
MVKWCTPAWMCTLE (cysteine pairing not given here; also: displayed on phage as pIII fusion, linker and pIII sequence not given here, Clonal phage of the peptide-180 library; not shown: fused to pIII of the bacteriophage) [Phage-2609]	1.02
HVNWCTPKWMCSGF (cysteine pairing not given here; also: displayed on phage pIII, linker not given here, Clonal phage of the peptide-180 library; not shown: fused to pIII of the bacteriophage) [Phage-2614]	1.02
YTPWCKPAWMCSVS (cysteine pairing not given here; also: displayed on phage pIII, linker not given here, Clonal phage of the peptide-180 library; not shown: fused to pIII of the bacteriophage) [Phage-2617]	1.01
QDNWCIPRWMCEAM (cysteine pairing not given here; also: displayed on phage pIII, linker not given here, Clonal phage of the peptide-180 library; not shown: fused to pIII of the bacteriophage) [Phage-2616]	1.01
SSMLCIPPWMCEQS (cysteine pairing not given here; also: displayed on phage as pIII fusion, linker and pIII sequence not given here, Clonal phage of the peptide-180 library; not shown: fused to pIII of the bacteriophage) [Phage-2610]	1.02
AFKWCIPNWMCASQ (cysteine pairing not given here; also: fused to phage pIII (clonal phage display), Clonal phage of the peptide-180 library; not shown: fused to pIII of the bacteriophage) [Phage-2618]	1.01
MYNLCTPEWMCAGF (cysteine pairing not given here; also: displayed on phage pIII, linker not given here, Clonal phage of the peptide-180 library; not shown: fused to pIII of the bacteriophage) [Phage-2613]	1.02
VEKWCIPEWMCETS (cysteine pairing not given here; also: displayed on phage pIII, linker not given here, Clonal phage of the peptide-180 library; not shown: fused to pIII of the bacteriophage) [Phage-2611]	1.02
QMKLCIPQWMCVDH (cysteine pairing not given here; also: displayed on phage as pIII fusion, linker and pIII sequence not given here, Clonal phage of the peptide-180 library; not shown: fused to pIII of the bacteriophage) [Phage-2607]	1.03
VDKWCIPAWMCDRS (cysteine pairing not given here; also: displayed on phage as pIII fusion, linker and pIII sequence not given here, Clonal phage of the peptide-180 library; not shown: fused to pIII of the bacteriophage) [Phage-2606]	1.03
FANWCTPSWMCVGM (cysteine pairing not given here; also: displayed on phage pIII, linker not given here, Clonal phage of the peptide-180 library; not shown: fused to pIII of the bacteriophage) [Phage-2612]	1.02
